Please provide measured normalized growth for the entries that follow.
assay protocol: chemical genetic growth profiling, strain panel (AID 1159580);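 also: tested at 20 µM; growth read once vehicle control cultures reached saturation at 30 °C; 1 = growth at the plate median or of vehicle wells; lower values mean less growth of the strain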
run parameters: S. cerevisiae deletion strains, growth OD, locus YNL071W, strain lat1, active compounds read low
In all, about 5,500 compounds went through this assay and about 2,000 (36%) were called active. Another 18% or so got no clear call; they are omitted. Some of the results follow.
Give bare numbers.

Below, 3 compounds whose answers are already recorded.
[
  {
    "compound": "O=C1c2ccc(O)c(O)c2C(=O)c2c(O)ccc(O)c21",
    "normalized growth": 0.748
  },
  {
    "compound": "O=c1ccc2ccc(O)c(O)c2o1",
    "normalized growth": 1.02
  },
  {
    "compound": "O=C1c2ccccc2C(=O)c2c1ccc(O)c2O",
    "normalized growth": 0.386
  }
]

Please report normalized growth for every entry that follows.
1. O=c1cc(-c2ccc(O)cc2)oc2cc(O[C@@H]3O[C@H](CO)[C@@H](O)[C@H](O)[C@H]3O[C@@H]3OC[C@](O)(CO)[C@H]3O)cc(O)c12
2. CCOc1nc2cccc(C(=O)OC(C)OC(=O)OC3CCCCC3)c2n1Cc1ccc(-c2ccccc2-c2nn[nH]n2)cc1 (stereo not given)
3. FC(F)(F)COCC(F)(F)F
4. Cc1cc(O)c2c(c1O)C(=O)c1c(O)cc(C)c(O)c1C2=O
5. CCCCC(=O)N(Cc1ccc(-c2ccccc2-c2nn[nH]n2)cc1)[C@H](C(=O)O)C(C)C
6. N#C/C(=C\c1ccc(O)cc1)C(=O)O
7. COc1ccc(Cc2nccc3cc(OC)c(OC)cc23)cc1OC

[1.02, 1.02, 1.03, 0.984, 0.991, 0.998, 1]

###

assay protocol: chemical genetic growth profiling, strain panel (AID 1159580);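 also: tested at 20 µM; growth read once vehicle control cultures reached saturation at 30 °C; 1 = growth at the plate median or of vehicle wells; lower values mean less growth of the strain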
run parameters: S. cerevisiae deletion strains, growth OD, locus YJL129C, strain trk1, active compounds read low
Screen size: about 5,500 compounds; about 2,000 (36%) were called active. Roughly 18% stayed inconclusive and do not appear here. The list shows a part of the results.
Decision: normalized growth beneath 1 gives True; normalized growth meeting or exceeding 1 gives False.

Example cases with answers are listed next.
[
  {
    "compound": "CC(C)=CCOc1c2occc2cc2ccc(=O)oc12",
    "group label": "True"
  },
  {
    "compound": "CNC(=O)CSP(=S)(OC)OC",
    "group label": "False"
  }
]

Does the reported normalized growth of the following compound sit strictly below 1? Cc1cccc(N(C)C(=S)Oc2ccc3ccccc3c2)c1
True

normalized growth strictly < 1 for this compound? Cc1ncc([N+](=O)[O-])n1CCO
True

Identify whether the compound CC1=C(C(=O)O)N2C(=O)[C@@H](NC(=O)[C@H](N)C3=CCC=CC3)C2SC1 (stereo partly drawn) records normalized growth below 1.
False

Is it true that normalized growth reported for CC(C)=CCC1=C(O)c2ccccc2C(=O)C1=O is less than 1?
True

Decide: normalized growth of CC1=C2CCC3C(CC[C@]4(C)C(=O)CCC34)[C@@]2(C)CCC1=O (stereo partly drawn) strictly below 1?
True

Given the entry CC(=O)Oc1ccc2c(c1)CCC1C2CCC2(C)C1CC(OC(C)=O)C2OC(C)=O (stereo not drawn) , would its reported normalized growth be below 1?
True

Dear reviewer, please state whether COc1cc2ccc(=O)oc2c(OC)c1OC has normalized growth strictly beneath 1.
True

Please indicate whether the reported normalized growth of CC(=O)OC1CCC2C3CCc4cc(O)ccc4C3CCC12C (stereo not drawn) is strictly below 1.
True

Below 1 on normalized growth? Entry C[C@]12CCC3c4ccc(O)cc4CCC3C1CC[C@@H]2OC(=O)CCC1CCCC1 (stereo partly drawn)
False

Is normalized growth of CC(C)=CCC/C(C)=C/COc1ccc2ccc(=O)oc2c1 strictly below 1?
True

Please let me know if CC(=O)Oc1ccc2c(c1)CCC1C2CC[C@@]2(C)C1CC[C@@H]2OC(C)=O (stereo partly drawn) shows normalized growth below 1.
True

Is 1 strictly greater than the compound's reported normalized growth? compound: Cn1c(=O)[nH]c(=O)c2[nH]cnc21
True
